Source of measurements: patent US8466113B2

Recorded IC50 for the following compounds
target system: human SGLT1 (Homo sapiens)
Construct: expressed in transfected cells; host or cells: CHO-K1
Sequence (P13866 whole entry): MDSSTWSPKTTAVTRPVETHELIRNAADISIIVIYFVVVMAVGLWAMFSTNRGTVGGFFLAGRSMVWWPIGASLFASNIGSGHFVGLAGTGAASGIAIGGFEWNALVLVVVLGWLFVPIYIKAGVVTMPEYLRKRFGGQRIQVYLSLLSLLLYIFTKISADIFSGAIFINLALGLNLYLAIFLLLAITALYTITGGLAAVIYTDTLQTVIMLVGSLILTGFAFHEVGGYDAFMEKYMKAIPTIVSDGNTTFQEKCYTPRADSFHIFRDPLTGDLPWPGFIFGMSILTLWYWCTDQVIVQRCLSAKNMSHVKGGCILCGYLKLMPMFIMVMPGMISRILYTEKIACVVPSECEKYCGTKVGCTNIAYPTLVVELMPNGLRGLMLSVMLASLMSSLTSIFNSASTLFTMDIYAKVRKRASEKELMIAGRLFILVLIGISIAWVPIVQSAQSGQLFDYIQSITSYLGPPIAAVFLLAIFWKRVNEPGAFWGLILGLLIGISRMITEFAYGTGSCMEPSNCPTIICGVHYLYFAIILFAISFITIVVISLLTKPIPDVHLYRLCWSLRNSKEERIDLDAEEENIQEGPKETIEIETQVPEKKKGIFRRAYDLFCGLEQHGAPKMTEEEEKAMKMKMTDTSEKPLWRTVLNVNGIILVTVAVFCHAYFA
assay: Inhibition test for sodium-dependent sugar uptake in CHO-K1 cells stably expressing human SGLT1
Assay type: cell-based
conditions used: [14C]methyl α-D-glucopyranoside uptake, 37° C., 30 minutes, read-out: IC50 for hSGLT1
Report only the number, with the unit nM understood.

Record excerpt, results attached:
COc1cc(C(C)C)c(Cc2ccc(/C=C/C(C)(C)C(=O)NC(C)(C)C(=O)NCCN(C)C)cc2C)cc1[C@@H]1O[C@H](CO)[C@@H](O)[C@H](O)[C@H]1O    46
COc1cc(C(C)C)c(Cc2ccc(/C=C/C(C)(C)C(=O)NC(C)(C)C(=O)N3CCNCC3)cc2)cc1[C@@H]1O[C@H](CO)[C@@H](O)[C@H](O)[C@H]1O    38
COc1cc(C(C)C)c(Cc2ccc(/C=C/C(C)(C)C(=O)NC(C)(C)C(=O)N3CCN(C)CC3)cc2)cc1[C@@H]1O[C@H](CO)[C@@H](O)[C@H](O)[C@H]1O    42

Challenge: Complete the entry with IC50 for `COc1cc(C(C)C)c(Cc2ccc(/C=C/C(C)(C)C(=O)NC(C)(C)C(=O)N3CCC(N(C)C)CC3)cc2C)cc1[C@@H]1O[C@H](CO)[C@@H](O)[C@H](O)[C@H]1O`
Response given: 70

Challenge: Complete the entry with IC50 for `Cc1cc(/C=C/C(C)(C)C(=O)NC(C)(C)C(=O)NCC(C)(C)N)ccc1Cc1cc([C@@H]2O[C@H](CO)[C@@H](O)[C@H](O)[C@H]2O)c(O)cc1C(C)C`
Response given: 27
